Tested on: P. aeruginosa
Experiment: Bactericidal activity assay
Assay type: cell-based, Pseudomonas aeruginosa type 1
Details: 1.2 × 10^−7 M Peptide; 5 × 105 P. aeruginosa
MEASURED PARAMETER: Bactericidal Activity, % killing

Solved entries (count: 3):
| MONOMER SEQUENCE | TARGET DESC | Bactericidal Activity, % killing |
| --- | --- | --- |
| ANIKLSVKWKAQKRFLKMSIIVKLNDGRELSLD [βpep-9] | P. aeruginosa | 0% |
| KFIVTLRVIKAGPHSPTAQIIVELKNGRKLSLD [βpep-5] | P. aeruginosa | 7.4, n = 7% |
| SIQKLNVSMKLFRKQAKWKIIVKLNDGRELSLD [βpep-19] | P. aeruginosa | 62.5, n = 2% |

# input Record SIQDLNLSMKLFRKQAKWKIIVKLNDGRELSLD [βpep-22] : what is its Bactericidal Activity, % killing with P. aeruginosa?
# output 35.5, n = 3%

# input // same read-out, input: SIQDLNVSLKLFRKQAKWKIIVKLNDGRELSLD [βpep-21]
# output 13.0, n = 1%

# input // same read-out, input: SIQDLNVSMKLFRKQAKWKIIVKLNDGRELSLD [βpep-1]
# output 32.0, n = 3%

# input // same read-out, input: SIQDLNVSMXLFRKQAKWKIIVKLNDGRELSLD [βpep-20]
# output 0%

----------
Let's look at some sequences and their measured Bactericidal Activity, % killing.
Test system: P. aeruginosa
Experiment: Bactericidal activity assay
Format: cell-based, Pseudomonas aeruginosa type 1
Settings: 1.2 × 10^−7 M Peptide; 5 × 105 P. aeruginosa
Procedure: Bacteria: P. aeruginosa type 1 is a clinical isolate maintained in the laboratory. The isolate remains a smooth strain and was serotyped by the scheme of Homma. The Pseudomonas strain was maintained by monthly transfer on blood agar plates. […] Pyrogen-free solutions were used throughout the assay and all methods that follow. […] Bactericidal activity was determined by dose response over peptide concentrations ranging from about 1.2×10^−1M to about 4.1×10^−9M. […]

| MONOMER SEQUENCE | MEASURED PARAMETER | ENDPOINT VALUE |
| --- | --- | --- |
| HIKELQVKWKAQKRFLKMSIIVKLNDGRELSLD [βpep-3] | Bactericidal Activity, % killing | 24.9, n = 3% |
| SIQDLKVSMKLFRKQAKWKIIVKLNDGRELSLD [βpep-18] | Bactericidal Activity, % killing | 18.8, n = 1% |

# input Record HIKELQVRWRAQKRFLRMSIIVKLNDGRELSLD [βpep-6] : what is its Bactericidal Activity, % killing with P. aeruginosa?
# output 8.2, n = 2%

# input // same read-out, input: ANIKLSVKWKAQKRFLKMSINVDLSDGRELSLD [βpep-2]
# output 18.8, n = 6%

----------
Tested on: endotoxin from E. coli 055:B5
Assay: Limulus amoebocyte lysate assay (E-TOXATE), endotoxin neutralization
Type: biochemical
Conditions: Table 4; at the Ed
MEASURED PARAMETER: Endotoxin Neutralization, % at the effective dose
Please report the result as a number followed by the unit.

# input I have this substance here, ANIKLSVEMKFFKRHLKWKIIVKLNDGRELSLD [βpep-12] , and I need its recorded Endotoxin Neutralization, % at the effective dose.
# output 29.5%

# input // same read-out, input: SIQDLKVSMKLFRKQAKWKIIVKLNDGRELSLD [βpep-18]
# output 30.2%

# input // same read-out, input: ANIKLSVEMKLFCY^DWKVCKHVKLNDGRELSLD [βpep-11]
# output 29.5%
